Test system: Sarcoma 180
ASSAY: Test 5: Test of Antitumor Effect to Sarcoma 180 by Subcutaneous Administration
Format: in vivo, ICR female mice
SETUP CONDITIONS: 20 mg/kg subcutaneous; 6 weeks; control 20.3
Counter-ions that a name gives are not always drawn.
Listing of entries alongside the reported D: average diameter of tumor, 6 weeks.
ASSAY METRIC: D: average diameter of tumor, 6 weeks

| COMPOUND | ASSAY METRIC | OBSERVED |
| --- | --- | --- |
| CCN(CC)C(=O)N1CCN(c2ccc(C(=O)O)cc2)CC1 [drawing 39] | D: average diameter of tumor, 6 weeks | 4.8 mm |
| CCN(CC)C(=O)N1CCN(c2ccc(OC)cc2)CC1 [drawing 37] | D: average diameter of tumor, 6 weeks | 2.2 mm |
| CCN(CC)C(=O)N1CCN(c2ccc(C(C)=O)cc2)CC1 [drawing 40] | D: average diameter of tumor, 6 weeks | 8.5 mm |
| c1ccc([C@H]2CN3CCSC3=N2)cc1 [Levamisole hydrochloride, reference compound] | D: average diameter of tumor, 6 weeks | 14.4 mm |
| CCN(CC)C(=O)N1CCN(c2ccc(Cl)cc2)CC1 [drawing 36] | D: average diameter of tumor, 6 weeks | 3.8 mm |
| CCOC(=O)c1ccc(N2CCN(C(=O)N(CC)CC)CC2)cc1 [drawing 38] | D: average diameter of tumor, 6 weeks | 3.8 mm |
| CCN(CC)C(=O)N1CCN(c2ccccc2)CC1 [drawing 35] | D: average diameter of tumor, 6 weeks | 4.8 mm |

----------
Tested on: adjuvant arthritis
ASSAY: Test 2: Adjuvant Arthritis Test
Assay type: in vivo, SD male rats
SETUP CONDITIONS: 5 mg/kg subcutaneous, 9 times; left hind leg; 21 days; control 107.5 ± 13.3; * P<0.05, ** P<0.01
Where a name gives a salt, the structure may show the parent alone.
Would you mind labelling by Swelling Ratio (average value ± standard variation), 21 days? At or over 70% is satisfied, under is not satisfied.

| COMPOUND | LABEL VALUE |
| --- | --- |
| CCN(CC)C(=O)N1CCN(c2ccc(OC)cc2)CC1 [drawing 19] | not satisfied |
| CCOC(=O)c1ccc(N2CCN(C(=O)N(CC)CC)CC2)cc1 [drawing 20] | not satisfied |
| CCN(CC)C(=O)N1CCN(c2ccccc2)CC1 [drawing 17] | not satisfied |
| CCN(CC)C(=O)N1CCN(c2ccc(Cl)cc2)CC1 [drawing 18] | not satisfied |
| c1ccc([C@H]2CN3CCSC3=N2)cc1 [Levamisole hydrochloride, reference compound] | satisfied |

----------
Listing of entries alongside the reported N: number of living mice, 2 weeks.
Test system: Sarcoma 180
ASSAY: Test 4: Test of Antitumor Effect to Sarcoma 180 by Oral Administration
Format: in vivo, ICR female mice
SETUP CONDITIONS: 100 mg/kg oral; of 6 mice; 2 weeks; control 6
Structures can show the parent of a compound that is named as a salt.
ASSAY METRIC: N: number of living mice, 2 weeks

| COMPOUND | STUDY SYSTEM | ASSAY METRIC | OBSERVED |
| --- | --- | --- | --- |
| CCN(CC)C(=O)N1CCN(c2ccc(C(C)=O)cc2)CC1 [drawing 34] | Sarcoma 180 | N: number of living mice, 2 weeks | 6 |
| CCN(CC)C(=O)N1CCN(c2ccc(C(=O)O)cc2)CC1 [drawing 33] | Sarcoma 180 | N: number of living mice, 2 weeks | 6 |
| CCOC(=O)c1ccc(N2CCN(C(=O)N(CC)CC)CC2)cc1 [drawing 32] | Sarcoma 180 | N: number of living mice, 2 weeks | 6 |
| CCN(CC)C(=O)N1CCN(c2ccc(OC)cc2)CC1 [drawing 31] | Sarcoma 180 | N: number of living mice, 2 weeks | 6 |
| CCN(CC)C(=O)N1CCN(c2ccc(Cl)cc2)CC1 [drawing 30] | Sarcoma 180 | N: number of living mice, 2 weeks | 6 |
| CCN(CC)C(=O)N1CCN(c2ccccc2)CC1 [drawing 29] | Sarcoma 180 | N: number of living mice, 2 weeks | 6 |
| c1ccc([C@H]2CN3CCSC3=N2)cc1 [Levamisole hydrochloride, reference compound] | Sarcoma 180 | N: number of living mice, 2 weeks | 6 |
